Target: TNKS1 (Homo sapiens, UniProt O95271)
Sequence (O95271 1-1327): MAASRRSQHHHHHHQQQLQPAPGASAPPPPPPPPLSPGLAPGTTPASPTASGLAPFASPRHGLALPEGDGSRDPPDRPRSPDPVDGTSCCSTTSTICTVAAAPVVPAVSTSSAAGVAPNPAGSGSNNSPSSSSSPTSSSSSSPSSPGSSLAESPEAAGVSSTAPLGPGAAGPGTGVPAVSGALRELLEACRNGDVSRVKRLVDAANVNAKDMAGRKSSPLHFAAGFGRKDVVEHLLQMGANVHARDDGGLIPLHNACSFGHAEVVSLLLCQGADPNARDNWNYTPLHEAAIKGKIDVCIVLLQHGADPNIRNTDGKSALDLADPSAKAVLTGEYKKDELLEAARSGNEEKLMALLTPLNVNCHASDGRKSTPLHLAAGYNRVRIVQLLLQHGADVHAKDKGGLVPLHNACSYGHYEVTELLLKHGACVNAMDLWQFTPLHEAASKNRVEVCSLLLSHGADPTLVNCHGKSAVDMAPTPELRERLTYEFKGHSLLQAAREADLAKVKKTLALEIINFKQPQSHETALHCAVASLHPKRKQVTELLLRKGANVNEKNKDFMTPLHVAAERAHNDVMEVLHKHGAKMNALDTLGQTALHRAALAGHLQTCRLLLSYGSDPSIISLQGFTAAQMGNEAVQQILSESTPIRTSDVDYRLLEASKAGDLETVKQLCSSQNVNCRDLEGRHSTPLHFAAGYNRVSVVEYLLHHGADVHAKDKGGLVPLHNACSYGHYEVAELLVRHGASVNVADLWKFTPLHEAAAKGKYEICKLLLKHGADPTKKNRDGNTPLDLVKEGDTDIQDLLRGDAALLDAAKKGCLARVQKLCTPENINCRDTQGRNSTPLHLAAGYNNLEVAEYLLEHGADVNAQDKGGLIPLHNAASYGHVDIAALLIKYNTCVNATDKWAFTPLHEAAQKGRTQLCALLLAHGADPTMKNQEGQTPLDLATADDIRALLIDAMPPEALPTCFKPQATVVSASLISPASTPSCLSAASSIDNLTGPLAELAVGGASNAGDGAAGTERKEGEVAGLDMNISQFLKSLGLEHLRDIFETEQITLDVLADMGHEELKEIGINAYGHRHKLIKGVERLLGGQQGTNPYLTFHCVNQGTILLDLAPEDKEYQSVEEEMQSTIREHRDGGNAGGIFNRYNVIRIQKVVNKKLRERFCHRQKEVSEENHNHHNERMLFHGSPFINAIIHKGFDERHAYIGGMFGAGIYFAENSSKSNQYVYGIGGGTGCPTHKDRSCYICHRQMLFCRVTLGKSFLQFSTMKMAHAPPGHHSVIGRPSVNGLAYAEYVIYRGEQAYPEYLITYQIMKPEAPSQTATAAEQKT
Counter-ions that a name gives are not always drawn.

compound	scaleUnit	IC50
COC(=O)c1cc(C)nc2c(C(=O)N[C@H]3CC[C@H](C(=O)Nc4c(F)cc(F)cc4Cl)CC3)cnn12	nM	150
O=C(N[C@H]1CC[C@H](C(=O)Nc2cc(F)c(F)cc2Cl)CC1)c1cnc2cccnn12	nM	64
CNC(=O)c1nc[nH]c1C(=O)N[C@H]1CC[C@]2(CCN(c3ccc(F)cc3Cl)C2=O)CC1	nM	2200
Cc1cc(C)n2ncc(C(=O)N[C@H]3CC[C@@]4(CCCN(c5cc(C)c(F)cc5Cl)C4=O)CC3)c2n1	nM	170
Cc1ccccc1N(C)C(=O)[C@H]1CC[C@H](NC(=O)c2cnn3cccnc23)CC1	nM	330
Cc1c(C(C)N(C)C)cnc2c(C(=O)N[C@H]3CC[C@H](C(=O)Nc4ccc(F)cc4Cl)CC3)cnn12 (mixture of isomers) [Example 55, formic acid salt]	nM	740
CNC(=O)c1nc[nH]c1C(=O)N[C@H]1CC[C@H](C(=O)Nc2c(F)cc(F)cc2Br)CC1	nM	68
